Please go through the items and note down their pKd.
Reminder that pKd means the negative base-10 logarithm of the concentration expressed in mol/L.

Log: LACV EndoN (Bunyavirus La Crosse, UniProt A5HC98), compound O=C(O)C(=O)CC(=O)c1ccccc1 , pKd = 5.87

Log: LACV EndoN (Bunyavirus La Crosse, UniProt A5HC98), compound O=C1c2c(O)c(=O)ccn2N([C@@H]2c3ccccc3SCc3c2ccc(F)c3F)[C@@H]2COCCN12 , pKd = 7.72
